Reported Concentration of amino acid in the liquid, Before precipitation is given for each of the following compounds.
Assay: Precipitation with CO2 in solutions containing different amino acids, ethanol and water (table 3)
Type: physicochemical
Settings: 50 wt. % water, 50 wt. % ethanol, 0.5M NaOH
Excerpt: A variety of eluates, comprising different amino acids, and solvent concentrations were subjected to the precipitation stage as summarized in table 3: […]
All answers are understood in µg/mL, so give the number only.

Recorded results for 4 compounds are shown here.
# Compound, Endpoint result
measured = [
    ("CC(C)C[C@H](N)C(=O)O", 10200),
    ("CSCC[C@H](N)C(=O)O", 10300),
    ("NCCCC[C@H](N)C(=O)O", 10300),
    ("N[C@@H](Cc1ccccc1)C(=O)O", 10300),
]

Shifting focus to the compound that follows.
query: Name the recorded Concentration of amino acid in the liquid, Before precipitation for N[C@@H](CCC(=O)[O-])C(=O)[O-].[Na+].[Na+] [Sodium glutamate] .
result: 10100

###

Assay: Precipitation with CO2 in solutions containing different amino acids, ethanol and water (table 3)
Format: physicochemical
Details: 50 wt. % water, 50 wt. % ethanol, 0.5M NaOH; after CO2; includes sodium (bi)carbonate
Each entry gets class 0 if its Precipitate stays under 20 g/L, and class 1 if its Precipitate is 20 g/L or above.

Consider the worked cases shown below.
# Compound, Discrete label
records = [
    ("N[C@@H](Cc1ccccc1)C(=O)O", "class 0"),
    ("CSCC[C@H](N)C(=O)O", "class 0"),
    ("CC(C)C[C@H](N)C(=O)O", "class 0"),
    ("NCCCC[C@H](N)C(=O)O", "class 1"),
]

query: Evaluate N[C@@H](CCC(=O)[O-])C(=O)[O-].[Na+].[Na+] [Sodium glutamate] : Precipitate at minimum 20 g/L?
result: class 0

###

Test: Precipitation with CO2 in solutions containing different amino acids, ethanol and water (table 3)
Assay type: physicochemical
Conditions: 37.6 wt. % water, 62.4 wt. % ethanol, 0.5M NaOH; after CO2; includes sodium (bi)carbonate
Checkbox rule: Precipitate lower than 20 g/L = class 1; Precipitate not lower than 20 g/L = class 0.

Example entries and their recorded answers appear below.
# Molecule, Discrete label
data = [
    ("NCCCC[C@H](N)C(=O)O", "class 0"),
    ("CC(C)C[C@H](N)C(=O)O", "class 1"),
    ("CSCC[C@H](N)C(=O)O", "class 0"),
    ("N[C@@H](CCC(=O)[O-])C(=O)[O-].[Na+].[Na+] [Sodium glutamate]", "class 0"),
    ("N[C@@H](Cc1ccccc1)C(=O)O", "class 0"),
]

Read the next record carefully.
query: Regarding N[C@@H](CCC(=O)O)C(=O)O , kindly confirm whether its Precipitate is beneath 20 g/L.
result: class 0

###

The compounds listed here are annotated with their Concentration of amino acid in the liquid, Before precipitation.
Assay: Precipitation with CO2 in solutions containing different amino acids, ethanol and water (table 3)
Format: physicochemical
Conditions: 37.6 wt. % water, 62.4 wt. % ethanol, 0.5M NaOH
The reply must contain the numeric value and, after it, the unit.

Below, each entry is followed by its recorded Concentration of amino acid in the liquid, Before precipitation result.
# Compound, Endpoint result
rows = [
    ("N[C@@H](CCC(=O)[O-])C(=O)[O-].[Na+].[Na+] [Sodium glutamate]", "10100 µg/mL"),
    ("NCCCC[C@H](N)C(=O)O", "10400 µg/mL"),
    ("CSCC[C@H](N)C(=O)O", "10200 µg/mL"),
]

query: Can you share its Concentration of amino acid in the liquid, Before precipitation? I mean this compound: N[C@@H](CCC(=O)O)C(=O)O
result: 10100 µg/mL

query: Requested field: Concentration of amino acid in the liquid, Before precipitation. Item: N[C@@H](Cc1ccccc1)C(=O)O
result: 10200 µg/mL

query: Given the compound CC(C)C[C@H](N)C(=O)O , what is its reported Concentration of amino acid in the liquid, Before precipitation?
result: 9600 µg/mL
